- test protocol: Induction of hemolysis in human RBC assessed as hemoglobin release after 1 hr by microtiter plate reader analysis
- Assay type: cell-based, Erythrocyte
- measurement context: red blood cells
Where a SMILES comes first, the peptide text is derived from it. [ ]: non-standard residue; d: D form. 3Abz = Nc1cccc(C(=O)O)c1; Orn = NCCC[CH](N)C(=O)O
# if measured HC50 at 1 h < 400 µg/mL: class 1  # else: class 0

Here's what some known entries look like.
N=C(N)NCCCC(N)C(=O)NC(Cc1c[nH]c2ccccc12)C(=O)NC(Cc1c[nH]c2ccccc12)C(=O)Nc1cccc(C(=O)NC(CCCNC(=N)N)C(=O)NC(CCCNC(=N)N)C(N)=O)c1 (stereo not drawn) (H-RWW[3Abz]RR-NH2; configuration not given here) ... class 0
N=C(N)NCCCC(NC(=O)C(Cc1c[nH]c2ccccc12)NC(=O)C(Cc1c[nH]c2ccccc12)NC(=O)C(CCCNC(=N)N)NC(=O)C(N)Cc1c[nH]c2ccccc12)C(N)=O (stereo not drawn) (H-WRWWR-NH2; configuration not given here) ... class 1
NCCCC(NC(=O)C(CCCN)NC(=O)c1cccc(NC(=O)C(Cc2c[nH]c3ccccc23)NC(=O)C(CCCN)NC(=O)C(N)Cc2c[nH]c3ccccc23)c1)C(N)=O (stereo not drawn) (H-W[Orn]W[3Abz][Orn][Orn]-NH2; configuration not given here) ... class 0
N=C(N)NCCCC(N)C(=O)NC(CCCNC(=N)N)C(=O)NC(Cc1c[nH]c2ccccc12)C(=O)Nc1cccc(C(=O)NC(Cc2c[nH]c3ccccc23)C(=O)NC(CCCNC(=N)N)C(N)=O)c1 (stereo not drawn) (H-RRW[3Abz]WR-NH2; configuration not given here) ... class 1
N=C(N)NCCCC(NC(=O)c1cccc(NC(=O)C(Cc2c[nH]c3ccccc23)NC(=O)C(N)Cc2c[nH]c3ccccc23)c1)C(N)=O (stereo not drawn) (H-WW[3Abz]R-NH2; configuration not given here) ... class 1
N=C(N)NCCCC(N)C(=O)NC(CCCNC(=N)N)C(=O)NC(Cc1c[nH]c2ccccc12)C(=O)NC(Cc1c[nH]c2ccccc12)C(=O)NC(CCCNC(=N)N)C(N)=O (stereo not drawn) (H-RRWWR-NH2; configuration not given here) ... class 1
N=C(N)NCCCC(NC(=O)C(CCCNC(=N)N)NC(=O)c1cccc(NC(=O)C(Cc2c[nH]c3ccccc23)NC(=O)C(CCCNC(=N)N)NC(=O)C(N)Cc2c[nH]c3ccccc23)c1)C(N)=O (stereo not drawn) (H-WRW[3Abz]RR-NH2; configuration not given here) ... class 1
NCCCC(N)C(=O)NC(CCCN)C(=O)NC(Cc1ccccc1)C(=O)Nc1cccc(C(=O)NC(Cc2ccccc2)C(=O)NC(CCCN)C(N)=O)c1 (stereo not drawn) (H-[Orn][Orn]F[3Abz]F[Orn]-NH2; configuration not given here) ... class 0
NCCCC(NC(=O)C(Cc1c[nH]c2ccccc12)NC(=O)c1cccc(NC(=O)C(CCCN)NC(=O)C(CCCN)NC(=O)C(N)Cc2c[nH]c3ccccc23)c1)C(N)=O (stereo not drawn) (H-W[Orn][Orn][3Abz]W[Orn]-NH2; configuration not given here) ... class 0
N=C(N)NCCCC(NC(=O)C(Cc1c[nH]c2ccccc12)NC(=O)c1cccc(NC(=O)C(CCCNC(=N)N)NC(=O)C(CCCNC(=N)N)NC(=O)C(N)Cc2c[nH]c3ccccc23)c1)C(N)=O (stereo not drawn) (H-WRR[3Abz]WR-NH2; configuration not given here) ... class 1

Query block: Would you kindly verify if HC50 at 1 h of N=C(N)NCCCC(NC(=O)C(Cc1ccccc1)NC(=O)c1cccc(NC(=O)C(Cc2ccccc2)NC(=O)C(CCCNC(=N)N)NC(=O)C(N)Cc2ccccc2)c1)C(N)=O (stereo not drawn) (H-FRF[3Abz]FR-NH2; configuration not given here) is strictly less than 400 µg/mL?
Result block: class 1
